Assay System: GluN1/GluN2B NMDARs (Rattus norvegicus, UniProt P35439+Q00960)
Sequence (Q00960 27-1482, other chains not shown): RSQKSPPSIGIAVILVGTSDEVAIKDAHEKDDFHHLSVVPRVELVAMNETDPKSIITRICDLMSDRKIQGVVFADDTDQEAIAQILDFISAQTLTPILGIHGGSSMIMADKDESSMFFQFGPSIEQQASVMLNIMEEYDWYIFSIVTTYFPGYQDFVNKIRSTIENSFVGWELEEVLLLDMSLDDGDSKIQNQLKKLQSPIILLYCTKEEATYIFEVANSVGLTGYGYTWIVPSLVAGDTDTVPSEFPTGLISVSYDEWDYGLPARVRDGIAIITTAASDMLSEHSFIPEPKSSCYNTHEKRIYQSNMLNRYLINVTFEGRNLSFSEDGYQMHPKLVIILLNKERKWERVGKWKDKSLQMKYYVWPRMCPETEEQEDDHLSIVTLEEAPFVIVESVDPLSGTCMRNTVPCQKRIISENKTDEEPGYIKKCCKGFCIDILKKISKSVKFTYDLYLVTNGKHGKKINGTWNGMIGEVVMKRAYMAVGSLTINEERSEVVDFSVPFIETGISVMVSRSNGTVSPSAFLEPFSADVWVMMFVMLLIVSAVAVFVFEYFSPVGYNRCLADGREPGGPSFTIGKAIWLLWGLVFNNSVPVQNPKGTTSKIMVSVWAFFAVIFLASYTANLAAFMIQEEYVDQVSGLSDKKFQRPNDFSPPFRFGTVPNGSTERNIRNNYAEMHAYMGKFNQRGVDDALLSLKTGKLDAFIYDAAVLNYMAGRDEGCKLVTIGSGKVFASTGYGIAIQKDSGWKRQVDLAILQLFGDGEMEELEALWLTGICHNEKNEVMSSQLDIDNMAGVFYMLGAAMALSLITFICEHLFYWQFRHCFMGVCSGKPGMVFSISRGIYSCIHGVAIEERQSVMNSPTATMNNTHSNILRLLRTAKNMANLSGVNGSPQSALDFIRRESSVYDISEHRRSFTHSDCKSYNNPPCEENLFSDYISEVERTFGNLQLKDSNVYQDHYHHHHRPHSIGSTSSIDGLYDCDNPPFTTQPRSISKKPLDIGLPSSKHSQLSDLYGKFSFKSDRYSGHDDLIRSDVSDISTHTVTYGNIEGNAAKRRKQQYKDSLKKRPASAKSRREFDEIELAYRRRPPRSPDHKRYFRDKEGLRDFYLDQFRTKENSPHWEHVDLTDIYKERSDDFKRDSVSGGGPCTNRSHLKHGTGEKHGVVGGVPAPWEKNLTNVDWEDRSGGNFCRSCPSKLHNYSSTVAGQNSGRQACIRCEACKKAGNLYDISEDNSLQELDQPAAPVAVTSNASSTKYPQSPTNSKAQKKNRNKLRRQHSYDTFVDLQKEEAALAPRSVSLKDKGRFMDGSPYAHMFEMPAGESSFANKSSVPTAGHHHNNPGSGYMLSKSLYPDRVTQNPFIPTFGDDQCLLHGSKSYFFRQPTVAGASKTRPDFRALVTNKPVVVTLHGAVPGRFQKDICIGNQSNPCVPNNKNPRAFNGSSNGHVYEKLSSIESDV
Assay Info: Two-electrode voltage-clamp recordings, Xenopus laevis oocytes expressing GluN1/GluN2B
Format: cell-based
Settings: saturating glutamate/glycine 100/30 µM; mean [95% CI]; - = not fit, response at 30 µM differed by no more than 15% from control; read-out: EC50 (µM) [conf. int.]
Property Name: EC50 (µM)

- Compound: "CCCCOC(=O)c1c(NC(=O)CC2SC(=N)NC2=O)sc2c1CCCC2 (stereo not shown)"
  Result Unit: "µM"
  Test Result: 1.4
- Compound: "CC(C)(C)OC(=O)c1c(NC(=O)CC2SC(=N)NC2=O)sc2c1CCCC2 (stereo not shown)"
  Result Unit: "µM"
  Test Result: 1.4
- Compound: "CC1CCc2c(sc(NC(=O)CC3SC(=N)NC3=O)c2C(=O)OC(C)C)C1 (stereo not shown)"
  Result Unit: "µM"
  Test Result: 1.1
- Compound: "N=C1NC(=O)C(CC(=O)Nc2sc3c(c2C(=O)OCc2ccccc2)CCCC3)S1 (stereo not shown)"
  Result Unit: "µM"
  Test Result: 1
- Compound: "CCOC(=O)c1c(NC(=O)CC2SC(=N)NC2=O)sc2c1CCCC2 (stereo not shown)"
  Result Unit: "µM"
  Test Result: 2.6
- Compound: "CC(C)OC(=O)c1c(NC(=O)CC2SC(=N)NC2=O)sc2c1CCCC2 (stereo not shown)"
  Result Unit: "µM"
  Test Result: 2.5
- Compound: "CCOC(=O)c1c(NC(=O)CC2SC(=N)NC2=O)sc2c1CCC(C)C2 (stereo not shown)"
  Result Unit: "µM"
  Test Result: 1.2

* * *

Listed here are compounds together with their documented Emax.
Assay System: GluN1/GluN2D NMDARs (Rattus norvegicus, UniProt P35439+Q62645)
Sequence (Q62645 28-1323, other chains not shown): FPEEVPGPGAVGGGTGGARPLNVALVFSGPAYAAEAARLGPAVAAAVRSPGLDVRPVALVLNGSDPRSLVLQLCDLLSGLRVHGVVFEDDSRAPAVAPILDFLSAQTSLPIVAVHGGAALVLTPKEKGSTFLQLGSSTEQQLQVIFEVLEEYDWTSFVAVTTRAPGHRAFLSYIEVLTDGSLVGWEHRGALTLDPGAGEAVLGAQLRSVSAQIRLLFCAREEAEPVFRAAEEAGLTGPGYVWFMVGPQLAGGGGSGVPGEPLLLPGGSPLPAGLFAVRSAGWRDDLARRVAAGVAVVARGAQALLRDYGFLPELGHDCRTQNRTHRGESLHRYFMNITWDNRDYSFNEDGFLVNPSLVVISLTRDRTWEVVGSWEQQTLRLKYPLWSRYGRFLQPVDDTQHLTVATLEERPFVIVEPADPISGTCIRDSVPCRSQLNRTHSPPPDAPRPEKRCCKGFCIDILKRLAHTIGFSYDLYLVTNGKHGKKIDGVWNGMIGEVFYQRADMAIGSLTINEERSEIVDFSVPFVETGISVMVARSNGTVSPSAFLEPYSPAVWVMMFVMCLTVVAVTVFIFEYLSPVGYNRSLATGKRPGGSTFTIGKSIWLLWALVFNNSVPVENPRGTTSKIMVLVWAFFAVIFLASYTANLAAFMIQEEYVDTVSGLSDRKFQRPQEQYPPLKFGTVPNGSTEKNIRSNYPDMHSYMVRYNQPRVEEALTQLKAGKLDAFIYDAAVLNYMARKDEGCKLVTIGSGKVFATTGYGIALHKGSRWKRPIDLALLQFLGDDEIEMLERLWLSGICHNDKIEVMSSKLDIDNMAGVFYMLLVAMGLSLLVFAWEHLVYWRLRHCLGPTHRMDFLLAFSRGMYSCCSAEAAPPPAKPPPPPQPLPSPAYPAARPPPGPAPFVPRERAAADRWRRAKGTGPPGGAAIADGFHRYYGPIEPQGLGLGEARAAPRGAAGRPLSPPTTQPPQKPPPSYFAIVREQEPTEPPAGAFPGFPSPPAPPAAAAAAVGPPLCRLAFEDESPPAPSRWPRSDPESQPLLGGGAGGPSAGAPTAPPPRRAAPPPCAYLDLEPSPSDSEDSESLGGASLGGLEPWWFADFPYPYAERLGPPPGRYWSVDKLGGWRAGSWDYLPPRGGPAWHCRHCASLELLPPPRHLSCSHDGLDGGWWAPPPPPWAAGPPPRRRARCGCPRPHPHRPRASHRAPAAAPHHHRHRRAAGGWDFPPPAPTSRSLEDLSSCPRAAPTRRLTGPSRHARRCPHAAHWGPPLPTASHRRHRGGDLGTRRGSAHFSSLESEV
Assay Info: Two-electrode voltage-clamp recordings, Xenopus laevis oocytes expressing GluN1/GluN2D
Assay type: cell-based
Settings: saturating glutamate/glycine 100/30 µM; mean ± SEM; read-out: Maximal Degree of Modulation (% of control)

- Compound: "CC(C)(C)OC(=O)c1c(NC(=O)CC2SC(=N)NC2=O)sc2c1CCCC2 (stereo not drawn)"
  Emax / %: 250
- Compound: "CCCCOC(=O)c1c(NC(=O)CC2SC(=N)NC2=O)sc2c1CCCC2 (stereo not drawn)"
  Emax / %: 166
- Compound: "N=C1NC(=O)C(CC(=O)Nc2sc3c(c2C(=O)OCc2ccccc2)CCCC3)S1 (stereo not drawn)"
  Emax / %: 250
- Compound: "CCOC(=O)c1c(NC(=O)CC2SC(=N)NC2=O)sc2c1CCC(C)C2 (stereo not drawn)"
  Emax / %: 14
- Compound: "CCOC(=O)c1c(NC(=O)CC2SC(=N)NC2=O)sc2c1CCCC2 (stereo not drawn)"
  Emax / %: 51
- Compound: "CC1CCc2c(sc(NC(=O)CC3SC(=N)NC3=O)c2C(=O)OC(C)C)C1 (stereo not drawn)"
  Emax / %: 46

* * *

Assay System: GluN1/GluN2C NMDARs (Rattus norvegicus, UniProt P35439+Q00961)
Assay Info: Two-electrode voltage-clamp recordings, Xenopus laevis oocytes expressing GluN1/GluN2C
Assay type: cell-based
Settings: sub-saturating glutamate/glycine 0.6/0.2 µM; read-out: EC50 (µM) [conf. int.]
Property Name: EC50 (µM)

- Compound: "CCOC(=O)c1c(NC(=O)CC2SC(=N)NC2=O)sc2c1CCC(C)C2 (stereo not shown)"
  Result Unit: "µM"
  Test Result: 0.72

* * *

Assay System: GluN1/GluN2A NMDARs (Rattus norvegicus, UniProt P35439+Q00959)
Sequence (Q00959 23-1464, other chains not shown): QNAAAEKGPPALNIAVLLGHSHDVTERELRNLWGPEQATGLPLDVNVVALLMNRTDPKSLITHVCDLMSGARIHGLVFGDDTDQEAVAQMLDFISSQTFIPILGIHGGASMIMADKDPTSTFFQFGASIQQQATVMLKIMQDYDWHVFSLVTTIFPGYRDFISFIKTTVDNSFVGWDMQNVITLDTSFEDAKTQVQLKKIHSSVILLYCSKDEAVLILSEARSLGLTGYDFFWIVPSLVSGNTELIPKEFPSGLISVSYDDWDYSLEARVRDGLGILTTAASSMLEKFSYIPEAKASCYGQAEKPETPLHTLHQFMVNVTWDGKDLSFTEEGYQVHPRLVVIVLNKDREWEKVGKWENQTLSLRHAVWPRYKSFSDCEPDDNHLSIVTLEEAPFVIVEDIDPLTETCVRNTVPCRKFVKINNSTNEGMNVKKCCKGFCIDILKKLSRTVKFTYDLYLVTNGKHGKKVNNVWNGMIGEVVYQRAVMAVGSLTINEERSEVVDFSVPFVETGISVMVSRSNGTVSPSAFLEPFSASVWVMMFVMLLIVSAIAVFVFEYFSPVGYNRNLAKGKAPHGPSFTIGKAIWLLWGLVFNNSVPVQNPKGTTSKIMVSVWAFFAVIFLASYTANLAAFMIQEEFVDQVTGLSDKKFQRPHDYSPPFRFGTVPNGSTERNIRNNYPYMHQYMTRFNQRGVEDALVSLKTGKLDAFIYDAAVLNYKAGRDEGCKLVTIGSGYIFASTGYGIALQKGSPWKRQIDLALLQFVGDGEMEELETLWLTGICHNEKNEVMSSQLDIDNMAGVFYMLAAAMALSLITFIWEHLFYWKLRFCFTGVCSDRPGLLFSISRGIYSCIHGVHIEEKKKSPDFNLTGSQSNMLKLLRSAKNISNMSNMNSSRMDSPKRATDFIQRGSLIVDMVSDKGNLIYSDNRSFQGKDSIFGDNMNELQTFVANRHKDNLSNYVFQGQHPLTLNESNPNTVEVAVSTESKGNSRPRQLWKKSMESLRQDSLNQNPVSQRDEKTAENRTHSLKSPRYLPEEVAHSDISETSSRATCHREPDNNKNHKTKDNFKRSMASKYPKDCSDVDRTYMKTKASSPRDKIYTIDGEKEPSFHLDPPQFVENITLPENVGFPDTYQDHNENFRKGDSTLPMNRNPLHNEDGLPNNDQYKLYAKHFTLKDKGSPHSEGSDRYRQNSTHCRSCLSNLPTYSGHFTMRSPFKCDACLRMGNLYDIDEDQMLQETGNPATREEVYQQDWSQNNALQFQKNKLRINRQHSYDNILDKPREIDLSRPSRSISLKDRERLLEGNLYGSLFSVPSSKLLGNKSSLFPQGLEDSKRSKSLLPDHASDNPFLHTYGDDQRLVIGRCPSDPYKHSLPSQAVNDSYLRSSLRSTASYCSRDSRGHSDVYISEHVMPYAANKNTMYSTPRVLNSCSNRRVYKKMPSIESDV
Assay Info: Two-electrode voltage-clamp recordings, Xenopus laevis oocytes expressing GluN1/GluN2A
Type: cell-based
Settings: sub-saturating glutamate/glycine 2/0.6 µM; read-out: EC50 (µM) [conf. int.]
Property Name: EC50 (µM)

- Compound: "CC(C)(C)OC(=O)c1c(NC(=O)CC2SC(=N)NC2=O)sc2c1CCCC2 (stereo not shown)"
  Property Name: "EC50"
  Test Result: 8.1

* * *

Listed here are compounds together with their documented IC50.
Assay System: GluN1/GluN2A NMDARs (Rattus norvegicus, UniProt P35439+Q00959)
Assay Info: Two-electrode voltage-clamp recordings, Xenopus laevis oocytes expressing GluN1/GluN2A
Assay type: cell-based
Settings: glutamate/glycine 100/30 µM; no second modulator (+EU1794-27 0 µM); read-out: IC50 (µM) [conf. int.]

- Compound: "CCOC(=O)c1c(NC(=O)CC2SC(=N)NC2=O)sc2c1CCC(C)C2 (centres unmarked)"
  IC50 (µM): 0.6
- Compound: "CCOC(=O)c1c(NC(=O)CC2SC(=N)NC2=O)sc2c1CCCC2 (centres unmarked)"
  IC50 (µM): 2.2

* * *

Assay System: GluN1/GluN2C NMDARs (Rattus norvegicus, UniProt P35439+Q00961)
Assay Info: Two-electrode voltage-clamp recordings, Xenopus laevis oocytes expressing GluN1/GluN2C
Assay type: cell-based
Settings: +EU1794-2 3 µM; glutamate/glycine 100/30 µM; read-out: EU1794-27 EC50 (µM) [conf. int.]

- Compound: "CC(C)(C)OC(=O)c1c(NC(=O)CC2SC(=N)NC2=O)sc2c1CCCC2 (stereo not shown) [EU1794-27]"
  EC50 (µM): 7.3

* * *

Assay System: GluN1/GluN2D NMDARs (Rattus norvegicus, UniProt P35439+Q62645)
Assay Info: Two-electrode voltage-clamp recordings, Xenopus laevis oocytes expressing GluN1/GluN2D
Assay type: cell-based
Settings: +EU1794-27 10 µM; glutamate/glycine 100/30 µM; read-out: EU1794-2 IC50 (µM) [conf. int.]

- Compound: "CCOC(=O)c1c(NC(=O)CC2SC(=N)NC2=O)sc2c1CCC(C)C2 (stereo not shown)"
  Result Unit: "µM"
  IC50: 2.7

* * *

Assay System: GluN1/GluN2A NMDARs (Rattus norvegicus, UniProt P35439+Q00959)
Assay Info: Two-electrode voltage-clamp recordings, Xenopus laevis oocytes expressing GluN1/GluN2A
Format: cell-based
Settings: +EU1794-27 20 µM; glutamate/glycine 100/30 µM; read-out: EU1794-2 IC50 (µM) [conf. int.]

- Compound: "CCOC(=O)c1c(NC(=O)CC2SC(=N)NC2=O)sc2c1CCC(C)C2 (stereo not shown)"
  IC50, µM: 8

* * *

Assay Info: Racemization time course of enantiomers in working solution (functional assessment)
Type: physicochemical
Settings: standard experimental (aqueous working) solution
Listed here are compounds together with their documented half-life at 10 µM.

- Compound: "CCOC(=O)c1c(NC(=O)CC2SC(=N)NC2=O)sc2c1CCCC2 (centres unmarked) [EU1794-4]"
  half-life at 10 µM / h: 3.27
- Compound: "CC(C)(C)OC(=O)c1c(NC(=O)CC2SC(=N)NC2=O)sc2c1CCCC2 (centres unmarked) [EU1794-27]"
  half-life at 10 µM / h: 3.28

* * *

Assay System: GluN1/GluN2D NMDARs (Rattus norvegicus, UniProt P35439+Q62645)
Assay Info: Two-electrode voltage-clamp recordings, Xenopus laevis oocytes expressing GluN1/GluN2D
Format: cell-based
Settings: +EU1794-27 3 µM; glutamate/glycine 100/30 µM; read-out: EU1794-2 IC50 (µM) [conf. int.]
Experimental: cDNAs for rat wild type NMDAR subunits GluN1-1a (GenBank U11418, U08261; hereafter GluN1 or GluN1a), GluN1-1b (U08263, hereafter GluN1b), GluN2A (D13211), GluN2B (U11419), Glu[…]), and Glu[…], modified as described in [Monyer et al., 1994]) were provided by Drs. […] Oocyte currents were recorded at a holding potential of -40 mV using a two-electrode voltage-clamp amplifier (OC-725B or OC-725C, Warner Instruments, Hamden, CT). […]

- Compound: "CCOC(=O)c1c(NC(=O)CC2SC(=N)NC2=O)sc2c1CCC(C)C2 (stereo not shown)"
  Assay System: "GluN1/GluN2D NMDARs (Rattus norvegicus, UniProt P35439+Q62645)"
  Result Unit: "µM"
  IC50: 1.4

* * *

Assay System: GluN1/GluN2D NMDARs (Rattus norvegicus, UniProt P35439+Q62645)
Assay Info: Two-electrode voltage-clamp recordings, Xenopus laevis oocytes expressing GluN1/GluN2D
Assay type: cell-based
Settings: read-out: Control Glutamate EC50 (µM) [conf. int.]; glutamate EC50 in 30 µM glycine, absence of EU1794-27

- Molecule: "N[C@@H](CCC(=O)O)C(=O)O [Glutamate, reference compound]"
  Assay System: "GluN1/GluN2D NMDARs (Rattus norvegicus, UniProt P35439+Q62645)"
  EC50 / µM: 0.21

* * *

Assay System: GluN1/GluN2A NMDARs (Rattus norvegicus, UniProt P35439+Q00959)
Assay Info: Whole cell patch-clamp recordings, HEK293 cells expressing GluN1/GluN2A
Settings: calculated from association and dissociation rates; HEK cells; read-out: kinetically-determined affinity constant Kd
Listed here are compounds together with their documented Kd.

- Compound: "CC(C)(C)OC(=O)c1c(NC(=O)CC2SC(=N)NC2=O)sc2c1CCCC2 (stereo not drawn) [EU1794-27]"
  Kd: "7.2 µM"
- Compound: "CCOC(=O)c1c(NC(=O)CC2SC(=N)NC2=O)sc2c1CCC(C)C2 (stereo not drawn) [EU1794-2]"
  Kd: "2.41 µM"
- Compound: "CCOC(=O)c1c(NC(=O)CC2SC(=N)NC2=O)sc2c1CCCC2 (stereo not drawn) [EU1794-4]"
  Kd: "7.85 µM"

Attribution: paper PMC5967867
